Reported protein stability index values are given for each entry in this list.
B1: TFE3 (parent)
chain: FPSDHLGDLGDPFHLGLEDILMEE

Variants of: B1
Assay: protein stability index of a GFP-peptide fusion (GPS, HEK-293T) (PSI 1-6); higher = more stable;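 also: lentivirally expressed fusions sorted by FACS into six bins by GFP to DsRed ratio, PSI derived from sequencing read proportions per bin multiplied by bin number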
Conditions: c terminus: a fixed tail appended

Solved cases (10 shown):
mut=L21G value_reported=3.88
mut=I20R value_reported=3.5
mut=I20A value_reported=3.28
mut=G16M value_reported=3.51
mut=L9K value_reported=3.94
mut=G10V value_reported=3.63
mut=G16Y value_reported=2.68
mut=H14K value_reported=3.7
mut=P12K value_reported=4.02
mut=P2W value_reported=2.04

Let's switch to this variant now.
Would you mind telling me what protein stability index value was observed for S3K ?
2.67
